- TESTED_ON: Renilla luciferase (Renilla reniformis, UniProt P27652)
- PROTOCOL_SUMMARY: Quaternary ammonium/phosphonium detergent screen, Renilla luciferase (Example 5)
- Type: biochemical
- MEASUREMENT_PARAMETERS: final conc. 0.10% detergent
QUANTITY: Selectivity Value
Form rule: numeric answer, no unit written next to it.

Ask: Query (compound): "C[P+](C)(Cc1ccc([N+](=O)[O-])cc1)c1ccccc1.[Br-]" ; field requested: Selectivity Value
Reply: 2.2

Ask: Query (compound): CC[P+](CC)(CC)Cc1ccccc1.[Br-] [Benzyltriethylphosphonium bromide] ; field requested: Selectivity Value
Reply: 2.0

Ask: Query (compound): C[N+](C)(C)Cc1ccccc1.[Br-] [Benzyltrimethylammonium bromide] ; field requested: Selectivity Value
Reply: 1.0

***
Ask: Query (compound): C[N+](C)(C)Cc1ccccc1.[I-] [Bezyltrimethylammonium iodide] ; field requested: Selectivity Value
Reply: 0.6

Ask: Query (compound): "CC=CC[P+](Cc1ccccc1)(c1ccccc1)c1ccccc1.[Br-]" ; field requested: Selectivity Value
Reply: 7.8

* * *

The reader will find reported remaining activity at 0.05 % values listed item by item below.
- TESTED_ON: Renilla luciferase (Renilla reniformis, UniProt P27652)
- PROTOCOL_SUMMARY: Detergent titration with Tergitol NP-9, digitonin or no lysing agent, Renilla luciferase (Example 4)
- Type: biochemical
- MEASUREMENT_PARAMETERS: 0.0500% detergent; Dig (20 μg/ml digitonin); read-out: Relative Renilla Luc Intensity
Please give a number only; it is taken to be in %.

Known remaining activity at 0.05 % results, listed for orientation:
Ask: Query (compound): CCCCCCCCCCCCCC[N+](C)(C)Cc1ccccc1.[Br-] [Benzyldimethyltetradecylammonium bromide] ; field requested: remaining activity at 0.05 %
Reply: 0.02

Ask: Query (compound): CCCCCCCCCCCC[N+](C)(C)C.[Br-] [Dodecyltrimethylammonium bromide] ; field requested: remaining activity at 0.05 %
Reply: 2

Ask: Query (compound): "Cc1cc(C)c(C[N+](C)(C)C)cc1C.[Br-]" ; field requested: remaining activity at 0.05 %
Reply: 0.03

Ask: Query (compound): CCCCCCCCCCCCCCCC[N+](C)(C)C.[Cl-] [Cetyltrimethylammonium chloride] ; field requested: remaining activity at 0.05 %
Reply: 0.02

***
Ask: Query (compound): CCCCCCCCCCCC[N+](C)(C)Cc1ccccc1.[Br-] [Benzyldimethyldodecylammonium bromide] ; field requested: remaining activity at 0.05 %
Reply: 0.02

Ask: Query (compound): CCCCC[N+](CCCCC)(CCCCC)CCCCC.[Br-] [Tetrapentylammonium bromide] ; field requested: remaining activity at 0.05 %
Reply: 40

* * *

- TESTED_ON: Renilla luciferase (Renilla reniformis)
- Sequence (P27652 1-311): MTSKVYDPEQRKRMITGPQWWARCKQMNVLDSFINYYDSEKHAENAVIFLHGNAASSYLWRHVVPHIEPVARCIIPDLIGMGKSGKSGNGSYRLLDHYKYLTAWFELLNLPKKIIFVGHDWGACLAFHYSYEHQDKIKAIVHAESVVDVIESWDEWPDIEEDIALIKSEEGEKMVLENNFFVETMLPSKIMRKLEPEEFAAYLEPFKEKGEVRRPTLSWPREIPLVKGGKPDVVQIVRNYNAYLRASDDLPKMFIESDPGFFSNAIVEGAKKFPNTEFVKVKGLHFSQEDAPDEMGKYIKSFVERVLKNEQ
- PROTOCOL_SUMMARY: Detergent titration with Tergitol NP-9, digitonin or no lysing agent, Renilla luciferase (Example 4)
- Format: biochemical
- MEASUREMENT_PARAMETERS: 0.0005% detergent; Water; read-out: Relative Renilla Luc Intensity
Hi! Just check whether remaining activity at 0.0005 % is below 50%. Below gives True, equal or above gives False.

Worked examples follow.
Ask: Dear reviewer, please state whether "Cc1cc(C)c(C[N+](C)(C)C)cc1C.[Br-]" has remaining activity at 0.0005 % strictly beneath 50%.
Reply: False

Ask: Dear reviewer, please state whether CCCCCCCCCCCCCC[N+](C)(C)Cc1ccccc1.[Br-] [Benzyldimethyltetradecylammonium bromide] has remaining activity at 0.0005 % strictly beneath 50%.
Reply: True

Ask: Dear reviewer, please state whether CCCCCCCCCCCC[N+](C)(C)C.[Br-] [Dodecyltrimethylammonium bromide] has remaining activity at 0.0005 % strictly beneath 50%.
Reply: False

Ask: Dear reviewer, please state whether CCCCCCCCCCCCCCCC[N+](C)(C)C.[Cl-] [Cetyltrimethylammonium chloride] has remaining activity at 0.0005 % strictly beneath 50%.
Reply: True

Ask: Dear reviewer, please state whether CCCCC[N+](CCCCC)(CCCCC)CCCCC.[Br-] [Tetrapentylammonium bromide] has remaining activity at 0.0005 % strictly beneath 50%.
Reply: False

Consider now this further compound.
Ask: Dear reviewer, please state whether CCCCCCCCCCCC[N+](C)(C)Cc1ccccc1.[Br-] [Benzyldimethyldodecylammonium bromide] has remaining activity at 0.0005 % strictly beneath 50%.
Reply: False

* * *

- TESTED_ON: Renilla luciferase (Renilla reniformis, UniProt P27652)
- Sequence (P27652 1-311): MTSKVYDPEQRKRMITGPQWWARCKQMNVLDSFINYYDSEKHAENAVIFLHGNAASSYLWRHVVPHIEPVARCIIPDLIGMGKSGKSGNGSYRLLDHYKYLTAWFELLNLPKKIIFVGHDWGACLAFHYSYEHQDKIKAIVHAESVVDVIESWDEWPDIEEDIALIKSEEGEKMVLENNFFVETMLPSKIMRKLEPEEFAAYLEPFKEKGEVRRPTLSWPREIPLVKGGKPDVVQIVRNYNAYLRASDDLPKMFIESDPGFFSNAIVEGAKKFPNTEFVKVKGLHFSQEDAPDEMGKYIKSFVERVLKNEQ
- PROTOCOL_SUMMARY: Quaternary ammonium/phosphonium detergent screen, Renilla luciferase (Example 5)
- Assay type: biochemical
- MEASUREMENT_PARAMETERS: final conc. 0.03% detergent; Tergitol NP-9 present
Short version: Retained Renilla Luciferase Luminescence (%) at least 90% is class 1, less is class 0.

Worked examples follow.
Ask: hey, is Retained Renilla Luciferase Luminescence (%) for this one >= 90%? C[N+](C)(Cc1ccccc1)c1ccccc1.[Br-] [Benzyldimethylphenylammonium bromide]
Reply: class 0

Ask: hey, is Retained Renilla Luciferase Luminescence (%) for this one >= 90%? C[N+](C)(Cc1ccccc1)c1ccccc1.[Cl-] [Benzyldimethylphenylammonium chloride]
Reply: class 0

Ask: hey, is Retained Renilla Luciferase Luminescence (%) for this one >= 90%? C[N+](C)(C)Cc1ccccc1.[I-] [Bezyltrimethylammonium iodide]
Reply: class 1

Consider now this further compound.
Ask: hey, is Retained Renilla Luciferase Luminescence (%) for this one >= 90%? "CC[N+](CC)(CCC(=O)Nc1c(C)cccc1C)Cc1ccccc1.O=C([O-])c1ccccc1"
Reply: class 0

* * *

- TESTED_ON: Renilla luciferase (Renilla reniformis)
- PROTOCOL_SUMMARY: Detergent titration with Tergitol NP-9, digitonin or no lysing agent, Renilla luciferase (Example 4)
- Format: biochemical
- MEASUREMENT_PARAMETERS: 0.0500% (w:v) detergent; Terg (0.5% Tergitol NP-9); read-out: Relative Renilla Luc Intensity
QUANTITY: remaining activity at 0.05 % (%)
Please give a number only; it is taken to be in %.

Ask: Query (compound): CCCCCCCCCCCCCC[N+](C)(C)Cc1ccccc1.[Br-] [Benzyldimethyltetradecylammonium bromide] ; field requested: remaining activity at 0.05 %
Reply: 5

Ask: Query (compound): CCCCCCCCCCCCCCCC[N+](C)(C)C.[Cl-] [Cetyltrimethylammonium chloride] ; field requested: remaining activity at 0.05 %
Reply: 6

Ask: Query (compound): CCCCC[N+](CCCCC)(CCCCC)CCCCC.[Br-] [Tetrapentylammonium bromide] ; field requested: remaining activity at 0.05 %
Reply: 38

Ask: Query (compound): CCCCCCCCCCCC[N+](C)(C)Cc1ccccc1.[Br-] [Benzyldimethyldodecylammonium bromide] ; field requested: remaining activity at 0.05 %
Reply: 2

Ask: Query (compound): "Cc1cc(C)c(C[N+](C)(C)C)cc1C.[Br-]" ; field requested: remaining activity at 0.05 %
Reply: 4

Kindly consider the entry below.
Ask: Query (compound): CCCCCCCCCCCC[N+](C)(C)C.[Br-] [Dodecyltrimethylammonium bromide] ; field requested: remaining activity at 0.05 %
Reply: 9

* * *

- TESTED_ON: Renilla luciferase (Renilla reniformis)
- PROTOCOL_SUMMARY: Non-detergent compound screen, Renilla luciferase (Example 6)
- Format: biochemical
- MEASUREMENT_PARAMETERS: inhibitor 153 μM
The reader will find reported Selectivity Value values listed item by item below.

Known Selectivity Value results, listed for orientation:
Ask: Query (molecule): "COc1ccc(CNC(=O)/C=C/c2ccc3oc(=O)cc(C)c3c2)cc1" ; field requested: Selectivity Value
Reply: 1.1

Ask: Query (molecule): "COc1ccc(COC(=O)/C=C/c2ccc3[nH]cc(CCN(C)C)c3c2)cc1" ; field requested: Selectivity Value
Reply: 1.0

***
Ask: Query (molecule): "COc1ccc(CNC(=O)COc2ccc3[nH]cc(CCN(C)C)c3c2)cc1" ; field requested: Selectivity Value
Reply: 0.99

Ask: Query (molecule): "C=C(C(=O)NCc1ccc(OC)cc1)c1ccc2oc(=O)cc(C)c2c1" ; field requested: Selectivity Value
Reply: 1.04
